# conditions-used: in ethyl formate, 303.15 K
parameter: solubility (mole fraction)
Form field (numeric): enter value without unit.

Q: Any idea what its solubility (mole fraction) is? The molecule is `COc1ccc(C(=O)O)cc1`
Result: 0.00889

###

# conditions-used: in sec-butanol, 288.15 K
parameter: solubility (mole fraction)

Q: Any idea what its solubility (mole fraction) is? The compound is `COc1ccc(C(=O)O)cc1`
Result: 0.00789

###

# conditions-used: in 2-butanone, 328.15 K
parameter: solubility (mole fraction)
Form field (numeric): enter value without unit.

Q: Any idea what its solubility (mole fraction) is? The molecule is `COc1ccc(C(=O)O)cc1`
Result: 0.0394
